Target: cIAP2 (Homo sapiens)
Sequence (Q13489 whole entry): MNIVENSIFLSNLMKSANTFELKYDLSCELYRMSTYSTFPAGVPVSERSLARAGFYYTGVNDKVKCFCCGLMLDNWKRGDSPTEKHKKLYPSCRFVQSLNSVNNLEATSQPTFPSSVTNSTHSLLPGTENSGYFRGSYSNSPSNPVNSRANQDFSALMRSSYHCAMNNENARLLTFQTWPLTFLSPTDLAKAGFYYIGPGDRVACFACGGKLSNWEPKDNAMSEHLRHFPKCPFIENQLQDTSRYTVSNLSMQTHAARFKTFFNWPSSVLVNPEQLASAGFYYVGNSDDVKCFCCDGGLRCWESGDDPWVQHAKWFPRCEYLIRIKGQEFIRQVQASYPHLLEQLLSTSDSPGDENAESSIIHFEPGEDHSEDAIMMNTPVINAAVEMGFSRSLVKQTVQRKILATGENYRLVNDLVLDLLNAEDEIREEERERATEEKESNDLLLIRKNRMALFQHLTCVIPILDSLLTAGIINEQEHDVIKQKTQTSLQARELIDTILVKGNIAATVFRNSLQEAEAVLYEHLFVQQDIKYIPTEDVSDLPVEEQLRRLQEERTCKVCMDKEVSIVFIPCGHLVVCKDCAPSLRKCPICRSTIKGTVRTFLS
Assay: Immunoblotting (western blot) quantification of cIAP2 levels in MM.1S cells
Conditions: MM1.S, 16 h, read-out: %remaining protein cIAP2
# label = 1.0 if remaining activity at 0.1 µM < 30% else 0.0

Worked examples, 2 compounds total:
| COMPOUND | CLASS LABEL |
| --- | --- |
| CN[C@@H](C)C(=O)N[C@H](C(=O)N1C[C@@H](Oc2cccc(OCCCCCCOCCCCCOCCCCCOc3cc(-c4scnc4C)ccc3CNC(=O)[C@@H]3C[C@@H](O)CN3C(=O)[C@H](C(C)C)N3Cc4ccccc4C3=O)c2)C[C@H]1C(=O)N[C@@H]1CCCc2ccccc21)C1CCCCC1 | 0.0 |
| CN[C@@H](C)C(=O)N[C@H](C(=O)N1C[C@@H](Oc2cccc(OCCCCCCOCCCCCCOCC(=O)N[C@H](C(=O)N3C[C@H](O)C[C@H]3C(=O)NCc3ccc(-c4scnc4C)cc3)C(C)(C)C)c2)C[C@H]1C(=O)N[C@@H]1CCCc2ccccc21)C1CCCCC1 | 1.0 |

Turning to the following compound.
Lab note: confirm whether the reported remaining activity at 0.1 µM for this compound is below 30%, equality not counting. compound: `CN[C@@H](C)C(=O)N[C@H](C(=O)N1C[C@@H](Oc2cccc(OCCCCOCCCCOc3cc(-c4scnc4C)ccc3CNC(=O)[C@@H]3C[C@@H](O)CN3C(=O)[C@H](C(C)C)N3Cc4ccccc4C3=O)c2)C[C@H]1C(=O)N[C@@H]1CCCc2ccccc21)C1CCCCC1`
1.0
